Assay: Plasma concentration in immature Sprague-Dawley rat prostate weight model at 10 mg/kg, po qd administered for 4 days measured 2 hrs post last dose on day 4
Assay type: ADME, organism-based
Label rule, in plain words: concentration at 2 h of 4 µM and up is rule met, under 4 µM is rule not met.

molecule | category_label
CCC(=O)N[C@@H]1C[C@]2(C)O[C@]1(C)[C@@H]1C(=O)N(c3ccc(C#N)c(C(F)(F)F)c3)C(=O)[C@@H]12 | rule met
C[C@]12O[C@@](C)(C[C@H]1N)[C@H]1C(=O)N(c3ccc(C#N)c(C(F)(F)F)c3)C(=O)[C@H]12 | rule not met
CNS(=O)(=O)N[C@@H]1C[C@]2(C)O[C@]1(C)[C@@H]1C(=O)N(c3ccc(C#N)c(C(F)(F)F)c3)C(=O)[C@@H]12 | rule not met
CN(C(=O)[C@@H]1C[C@]2(C)O[C@]1(C)[C@@H]1C(=O)N(c3ccc(C#N)c(C(F)(F)F)c3)C(=O)[C@@H]12)c1ccccc1 | rule met
CC(C)NC(=O)N[C@@H]1C[C@]2(C)O[C@]1(C)[C@@H]1C(=O)N(c3ccc(C#N)c(C(F)(F)F)c3)C(=O)[C@@H]12 | rule met
C[C@]12O[C@@](C)(C[C@H]1NS(=O)(=O)c1ccccc1)[C@H]1C(=O)N(c3ccc(C#N)c(C(F)(F)F)c3)C(=O)[C@H]12 | rule not met
C[C@]12O[C@@](C)(C[C@H]1NS(=O)(=O)c1cccnc1)[C@H]1C(=O)N(c3ccc(C#N)c(C(F)(F)F)c3)C(=O)[C@H]12 | rule not met
CC(O)(CS(=O)(=O)c1ccc(F)cc1)C(=O)Nc1ccc(C#N)c(C(F)(F)F)c1 (stereo unspecified) [BICALUTAMIDE] | rule met
C[C@]12O[C@@](C)(C[C@H]1NS(=O)(=O)c1ccccc1F)[C@H]1C(=O)N(c3ccc(C#N)c(C(F)(F)F)c3)C(=O)[C@H]12 | rule not met

---

Target: Cytochrome P450 2D6 (Homo sapiens, UniProt P10635)
Sequence (P10635 whole entry): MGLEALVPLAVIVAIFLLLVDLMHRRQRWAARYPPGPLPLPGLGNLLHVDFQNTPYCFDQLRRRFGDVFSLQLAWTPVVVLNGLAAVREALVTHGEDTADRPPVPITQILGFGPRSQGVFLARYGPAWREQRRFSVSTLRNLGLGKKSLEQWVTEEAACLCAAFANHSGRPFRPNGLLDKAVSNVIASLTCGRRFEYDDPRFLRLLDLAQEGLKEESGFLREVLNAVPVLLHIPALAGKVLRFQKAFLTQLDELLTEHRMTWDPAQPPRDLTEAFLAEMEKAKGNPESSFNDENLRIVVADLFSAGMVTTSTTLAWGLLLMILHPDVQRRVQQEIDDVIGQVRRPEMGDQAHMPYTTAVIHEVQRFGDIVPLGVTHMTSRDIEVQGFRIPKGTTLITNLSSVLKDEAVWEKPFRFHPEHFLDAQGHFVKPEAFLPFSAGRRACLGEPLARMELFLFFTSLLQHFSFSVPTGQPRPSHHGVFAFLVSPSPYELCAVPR
measured_quantity: IC50

record_smiles | tested_target | observed
CCS(=O)(=O)N[C@@H]1C[C@]2(C)O[C@]1(C)[C@@H]1C(=O)N(c3ccc(C#N)c(C(F)(F)F)c3)C(=O)[C@@H]12 | Cytochrome P450 2D6 (Homo sapiens, UniProt P10635) | > 40 µM

---

Molecular target: Androgen receptor (Homo sapiens)
Sequence (P10275 whole entry): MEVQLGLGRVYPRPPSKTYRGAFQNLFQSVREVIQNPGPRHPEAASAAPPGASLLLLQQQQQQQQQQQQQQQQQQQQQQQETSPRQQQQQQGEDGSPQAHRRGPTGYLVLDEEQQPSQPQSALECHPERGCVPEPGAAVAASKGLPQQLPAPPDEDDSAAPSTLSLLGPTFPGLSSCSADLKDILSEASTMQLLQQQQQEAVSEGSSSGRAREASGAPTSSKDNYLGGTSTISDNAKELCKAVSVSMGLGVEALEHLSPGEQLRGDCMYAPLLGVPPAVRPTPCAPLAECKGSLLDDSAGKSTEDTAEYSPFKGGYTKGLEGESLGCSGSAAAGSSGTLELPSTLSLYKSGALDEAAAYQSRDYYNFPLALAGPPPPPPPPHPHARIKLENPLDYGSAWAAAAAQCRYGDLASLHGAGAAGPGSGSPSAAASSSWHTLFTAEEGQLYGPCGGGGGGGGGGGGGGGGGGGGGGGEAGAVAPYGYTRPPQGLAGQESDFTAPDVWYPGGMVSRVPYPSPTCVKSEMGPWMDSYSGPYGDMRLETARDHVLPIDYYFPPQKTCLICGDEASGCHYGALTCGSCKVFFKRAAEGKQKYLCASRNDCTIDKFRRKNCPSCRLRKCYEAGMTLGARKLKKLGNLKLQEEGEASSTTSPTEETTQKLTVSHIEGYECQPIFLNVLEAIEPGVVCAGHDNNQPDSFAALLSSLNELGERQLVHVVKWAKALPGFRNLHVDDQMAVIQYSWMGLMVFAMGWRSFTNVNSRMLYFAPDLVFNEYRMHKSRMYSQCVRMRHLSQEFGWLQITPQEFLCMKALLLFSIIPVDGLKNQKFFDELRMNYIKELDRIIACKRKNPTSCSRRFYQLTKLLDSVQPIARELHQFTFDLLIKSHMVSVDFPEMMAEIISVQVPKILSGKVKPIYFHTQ
Experiment: Displacement of [3H]-DHT from androgen receptor in human MDA-MB-453 cells after 90 mins by TopCount analysis
pKi: −log10 of the molar value.
Record Fulfilled whenever pKi is at 8 or higher; record Not fulfilled when lower.

record_smiles | category_label
CN(C(=O)[C@@H]1C[C@]2(C)O[C@]1(C)[C@@H]1C(=O)N(c3ccc(C#N)c(C(F)(F)F)c3)C(=O)[C@@H]12)c1ccccc1 | Not fulfilled
CCS(=O)(=O)N[C@@H]1C[C@]2(C)O[C@]1(C)[C@@H]1C(=O)N(c3ccc(C#N)c(C(F)(F)F)c3)C(=O)[C@@H]12 | Fulfilled
C[C@]12O[C@@](C)(C[C@H]1NS(=O)(=O)c1cccnc1)[C@H]1C(=O)N(c3ccc(C#N)c(C(F)(F)F)c3)C(=O)[C@H]12 | Fulfilled
C[C@]12O[C@@](C)(C[C@H]1N)[C@H]1C(=O)N(c3ccc(C#N)c(C(F)(F)F)c3)C(=O)[C@H]12 | Not fulfilled
C[C@]12O[C@@](C)(C[C@H]1NS(=O)(=O)c1ccccc1F)[C@H]1C(=O)N(c3ccc(C#N)c(C(F)(F)F)c3)C(=O)[C@H]12 | Fulfilled
CC(C)NC(=O)N[C@@H]1C[C@]2(C)O[C@]1(C)[C@@H]1C(=O)N(c3ccc(C#N)c(C(F)(F)F)c3)C(=O)[C@@H]12 | Not fulfilled
CC(C)OC(=O)[C@@H]1C[C@]2(C)O[C@]1(C)[C@@H]1C(=O)N(c3ccc(C#N)c(C(F)(F)F)c3)C(=O)[C@@H]12 | Not fulfilled
C[C@]12O[C@@](C)(C[C@H]1C(=O)O)[C@H]1C(=O)N(c3ccc(C#N)c(C(F)(F)F)c3)C(=O)[C@H]12 | Not fulfilled
CCC(=O)N[C@@H]1C[C@]2(C)O[C@]1(C)[C@@H]1C(=O)N(c3ccc(C#N)c(C(F)(F)F)c3)C(=O)[C@@H]12 | Fulfilled
CNS(=O)(=O)N[C@@H]1C[C@]2(C)O[C@]1(C)[C@@H]1C(=O)N(c3ccc(C#N)c(C(F)(F)F)c3)C(=O)[C@@H]12 | Not fulfilled
